Target: T1, cynomolgus (cyno) ANGPT2 (cynomolgus, UniProt A0A2K5VNX6 275-496)
T1 construct: domain: FLD domain; also called cyno ANGPT2 FLD domain
T1 sequence: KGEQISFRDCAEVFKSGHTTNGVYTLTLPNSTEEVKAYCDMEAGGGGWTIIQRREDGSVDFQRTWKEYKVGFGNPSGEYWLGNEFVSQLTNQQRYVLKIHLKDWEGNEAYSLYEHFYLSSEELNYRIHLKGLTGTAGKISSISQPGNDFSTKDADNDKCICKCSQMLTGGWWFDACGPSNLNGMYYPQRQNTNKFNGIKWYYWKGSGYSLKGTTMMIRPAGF
Assay: SPR (ProteOn XPR36), antibody captured on Protein A/G, ANGPT2 as analyte, 1:1 Langmuir fit
ASSAY ENDPOINT: koff (s⁻¹)
Answers are plain numbers, in s⁻¹.

Consider the reported koff for these binders:
chimeric lead CL-209881 (antibody, V domains shown, Chimeric antibody with murine variable domains; the constant regions of the tested antibody are not) VH: QVQLKQSGAELVKPGSSVKISCRASGYIFIDYFINWVKQRPGQGLEWIGKIGPGSGSSSSNEKFKGKATLTADKSSSTAYMQLSSLTSEDSAVYFCAREAFDYDGDYYGMAYWGQGTSVTVSS VL: DIVMTQSPSSLSVSAGEKVTMSCKSSQSLLNSGNQKNFLAWYQQKPGQPPKLLIYGASTRESGVPDRFTGSGSGTDFTLTITSVQAEDLAVYYCQNDHSYPITFGSGTKLEIK | 3.93e-05
ANGPT2-opt-19 (humanized) (antibody, human IgG1, kappa, V domains shown, also called Ang2-opt-19) VH: QVQLVQSGAEVKKPGSSVKVSCKASGYIFIDYFINWVRQAPGQGLEWMGKIGPGSGSSSSNEKFKGRVTITADKSTSTAYMELSSLRSEDTAVYYCAREAFDYDGDYYGMAYWGQGTLVTVSS VL: EIVMTQSPATLSVSPGERATLSCRASQSVLSSGNQKSFLAWYQQKPGQAPRLLIYGASTRETGIPARFSGSGSGTEFTLTISSLQSEDFAVYYCQQDHSYPITFGQGTKLEIKR | 7.4e-05

Turning now to a further record.
koff reading for ANGPT2-opt-1 (humanized) (antibody, human IgG1, kappa, V domains shown, also called Ang2-opt-1) VH: QVQLVQSGAEVKKPGSSVKVSCKASGYIFIDYFINWVRQAPGQGLEWMGKIGPGSGSSSSNEKFKGRVTITADKSTSTAYMELSSLRSEDTAVYYCAREAFDYEGDYYGMAYWGQGTLVTVSS VL: EIVMTQSPATLSVSPGERATLSCKSSQSLLASGNQKNFLAWYQQKPGQAPRLLIYGASTRESGIPARFSGSGSGTEFTLTISSLQSEDFAVYYCQNDHSYPITFGQGTKLEIKR : 5.48e-05

The measured values listed here are drawn from patent US20200407435A1.
